Test system: Caco-2
EXPERIMENT DESCRIPTION: Efflux ratio of permeability from […] in human Caco2 cells
Assay type: ADME, cell-based
Assign labels as follows, please: fulfilled for Ratio below 20; not fulfilled for Ratio equal to or exceeding 20.

| CHEMICAL STRUCTURE | DISCRETE LABEL |
| --- | --- |
| CN(Cc1ccccc1)C(=O)[C@@]1(c2ccc(Cl)c(Cl)c2)C[C@H]1CN1CCC(NC(N)=O)(c2ccccc2)CC1 | not fulfilled |
| CN(Cc1ccc(F)cc1)C(=O)[C@@]1(c2ccc(Cl)c(Cl)c2)C[C@H]1CN1CCN(C(=O)CN2CCOCC2)CC1 | fulfilled |
| CN(Cc1ccc(F)cc1)C(=O)[C@@]1(c2ccc(Cl)c(Cl)c2)C[C@H]1CN1CCN(S(=O)(=O)N(C)C)CC1 | fulfilled |
| CN(Cc1ccccc1)C(=O)[C@@]1(c2ccc(Cl)c(Cl)c2)C[C@H]1CN1CCC(C(=O)N2CCCCC2)(c2ccccc2)CC1 | fulfilled |
| CNC(=O)NC1(c2ccccc2)CCN(C[C@@H]2C[C@@]2(C(=O)N(C)Cc2ccccc2)c2ccc(Cl)c(Cl)c2)CC1 | not fulfilled |
| CN(C)C(=O)CCN1CCN(C[C@@H]2C[C@@]2(C(=O)N(C)Cc2ccc(F)cc2)c2ccc(Cl)c(Cl)c2)CC1 | fulfilled |
| CC(=O)NC1(c2ccccc2)CCN(C[C@@H]2C[C@@]2(C(=O)N(C)Cc2ccccc2)c2ccc(Cl)c(Cl)c2)CC1 | fulfilled |
| COC(=O)NC1(c2ccccc2)CCN(C[C@@H]2C[C@@]2(C(=O)N(C)Cc2ccccc2)c2ccc(Cl)c(Cl)c2)CC1 | not fulfilled |

----------
Sequence of the target: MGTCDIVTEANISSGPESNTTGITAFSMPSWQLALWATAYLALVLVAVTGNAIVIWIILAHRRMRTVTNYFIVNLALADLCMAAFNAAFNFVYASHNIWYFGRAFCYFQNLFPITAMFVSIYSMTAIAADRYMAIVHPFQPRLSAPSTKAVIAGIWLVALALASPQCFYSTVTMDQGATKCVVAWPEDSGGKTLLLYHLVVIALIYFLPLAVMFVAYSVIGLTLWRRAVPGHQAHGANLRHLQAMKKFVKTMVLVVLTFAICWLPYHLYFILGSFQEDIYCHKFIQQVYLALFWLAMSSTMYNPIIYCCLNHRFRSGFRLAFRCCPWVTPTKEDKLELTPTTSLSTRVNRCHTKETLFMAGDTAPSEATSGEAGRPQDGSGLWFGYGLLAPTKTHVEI
PROPERTY MEASURED: Ki

| CHEMICAL STRUCTURE | PROPERTY MEASURED | RESULT |
| --- | --- | --- |
| CN(Cc1ccc(F)cc1)C(=O)[C@@]1(c2ccc(Cl)c(Cl)c2)C[C@H]1CN1CCN(S(=O)(=O)N(C)C)CC1 | Ki | 75 nM |

----------
Protein target, amino acids: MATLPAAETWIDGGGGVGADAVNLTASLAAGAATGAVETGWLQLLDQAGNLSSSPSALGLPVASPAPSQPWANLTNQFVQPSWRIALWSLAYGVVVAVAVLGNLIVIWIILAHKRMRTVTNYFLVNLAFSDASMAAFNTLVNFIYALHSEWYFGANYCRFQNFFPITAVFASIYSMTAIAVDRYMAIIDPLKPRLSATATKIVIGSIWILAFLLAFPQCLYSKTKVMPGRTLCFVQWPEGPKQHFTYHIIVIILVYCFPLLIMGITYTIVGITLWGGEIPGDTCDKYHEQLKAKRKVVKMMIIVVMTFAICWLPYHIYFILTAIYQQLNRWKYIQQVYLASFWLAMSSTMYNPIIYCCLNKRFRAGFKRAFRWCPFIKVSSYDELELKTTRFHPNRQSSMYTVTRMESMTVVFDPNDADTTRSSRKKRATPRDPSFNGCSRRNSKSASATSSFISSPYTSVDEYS
pKi: −log10 of the molar value.
PROPERTY MEASURED: pKi

| COMPOUND | PROPERTY MEASURED | READOUT NUMBER |
| --- | --- | --- |
| CC(=O)NC1(c2ccccc2)CCN(C[C@@H]2C[C@@]2(C(=O)N(C)Cc2ccc(F)cc2)c2ccc(C(F)(F)F)cc2)CC1 | pKi | 6.00 |
| CC(=O)NC1(c2ccccc2)CCN(CC2CC2(C(=O)N(C)Cc2ccc(C)cc2)c2ccc(Cl)c(Cl)c2)CC1 (racemic) | pKi | 8.12 |
| CC(=O)NC1(c2ccccc2)CCN(CC2CC2(C(=O)N(C)Cc2ccccc2Cl)c2ccc(Cl)c(Cl)c2)CC1 (racemic) | pKi | 7.70 |

----------
The next entries give measured Ki for Neuromedin-K receptor (Homo sapiens, UniProt P29371).

| MOLECULE | Ki / nM |
| --- | --- |
| COc1cc(CN(C)C(=O)C2(c3ccc(Cl)c(Cl)c3)CC2CN2CCC(NC(C)=O)(c3ccccc3)CC2)cc(OC)c1 (racemic) | 32 |
| CC(=O)NC1(c2ccccc2)CCN(CC2CC2(C(=O)N(C)Cc2ccc(Cl)c(Cl)c2)c2ccc(Cl)c(Cl)c2)CC1 (racemic) | 13 |
| CC(=O)NC1(c2ccccc2)CCN(CC2CC2(C(=O)N(C)Cc2cccc(C(F)(F)F)c2)c2ccc(Cl)c(Cl)c2)CC1 (racemic) | 50 |
| CN(Cc1ccccc1)C(=O)[C@@]1(c2ccc(Cl)c(Cl)c2)C[C@H]1CN1CCC(NC(N)=O)(c2ccccc2)CC1 | 12 |
| COc1ccc([C@]2(C(=O)N(C)Cc3ccc(F)cc3)C[C@H]2CN2CCC(NC(C)=O)(c3ccccc3)CC2)cc1 | 350 |
| CC(=O)NC1(c2ccccc2)CCN(C[C@@H]2C[C@@]2(C(=O)N(C)Cc2ccc(F)cc2)c2ccsc2)CC1 | 110 |
| CC(=O)NC1(c2ccccc2)CCN(C[C@@H]2C[C@@]2(C(=O)N(C)Cc2ccc(F)cc2)c2ccc3c(c2)OCO3)CC1 | 140 |
| CN(Cc1ccccc1)C(=O)[C@@]1(c2ccc(Cl)c(Cl)c2)C[C@H]1CN1CCC(C(=O)N2CCCCC2)(c2ccccc2)CC1 | 6.1 |
| CN(Cc1ccc(F)cc1)C(=O)[C@@]1(c2ccc(Cl)c(Cl)c2)C[C@H]1CN1CCN(CCN2CCOCC2)CC1 | 3.7 |
| CC(=O)NC1(c2ccccc2)CCN(CC2CC2(C(=O)N(C)Cc2cccc(Cl)c2Cl)c2ccc(Cl)c(Cl)c2)CC1 (racemic) | 24 |
| COc1ccc(CN(C)C(=O)C2(c3ccc(Cl)c(Cl)c3)CC2CN2CCC(NC(C)=O)(c3ccccc3)CC2)cc1OC (racemic) | 67 |
| CN(C)C(=O)CCN1CCN(C[C@@H]2C[C@@]2(C(=O)N(C)Cc2ccc(F)cc2)c2ccc(Cl)c(Cl)c2)CC1 | 17 |
| CC(=O)NC1(c2ccccc2)CCN(C[C@@H]2C[C@@]2(C(=O)N(C)Cc2ccc(F)cc2)c2ccc(C)c(C)c2)CC1 | 7.3 |
| CC(=O)N(C)C1(c2ccccc2)CCN(C[C@@H]2C[C@@]2(C(=O)N(C)Cc2ccccc2)c2ccc(Cl)c(Cl)c2)CC1 | 4.2 |
| CN(Cc1ccc(F)cc1)C(=O)[C@@]1(c2ccc(Cl)c(Cl)c2)C[C@H]1CN1CCN(CC(=O)N2CCCC2)CC1 | 1.8 |

----------
Target protein (sequence): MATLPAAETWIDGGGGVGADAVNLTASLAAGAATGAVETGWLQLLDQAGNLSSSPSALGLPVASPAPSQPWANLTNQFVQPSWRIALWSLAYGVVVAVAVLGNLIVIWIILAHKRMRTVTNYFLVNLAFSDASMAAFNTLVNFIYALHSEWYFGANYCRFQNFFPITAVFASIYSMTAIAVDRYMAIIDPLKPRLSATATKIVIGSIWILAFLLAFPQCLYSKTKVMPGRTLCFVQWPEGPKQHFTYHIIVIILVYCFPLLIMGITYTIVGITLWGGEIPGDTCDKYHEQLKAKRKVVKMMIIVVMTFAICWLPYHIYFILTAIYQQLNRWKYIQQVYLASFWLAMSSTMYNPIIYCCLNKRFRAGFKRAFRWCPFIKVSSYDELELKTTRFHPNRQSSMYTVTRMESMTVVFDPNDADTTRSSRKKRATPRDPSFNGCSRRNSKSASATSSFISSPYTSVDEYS
Assign labels as follows, please: Condition met for Ki below 10 nM; Condition not met for Ki equal to or exceeding 10 nM.

| MOLECULE | DISCRETE LABEL |
| --- | --- |
| CC(=O)NC1(c2ccccc2)CCN(CC2CC2(C(=O)N(C)Cc2ccc(Cl)cc2)c2ccc(Cl)c(Cl)c2)CC1 (racemic) | Condition not met |
| CC(C)NC[C@@H]1C[C@@]1(C(=O)N(C)Cc1ccc(F)cc1)c1ccc(Cl)c(Cl)c1 | Condition not met |
| CNC(=O)NC1(c2ccccc2)CCN(C[C@@H]2C[C@@]2(C(=O)N(C)Cc2ccccc2)c2ccc(Cl)c(Cl)c2)CC1 | Condition met |
| CC(=O)NC1(c2ccccc2)CCN(C[C@@H]2C[C@@]2(C(=O)N(C)Cc2ccc(F)cc2)c2ccc(C)cc2)CC1 | Condition not met |
| CN(Cc1ccc(F)cc1)C(=O)[C@@]1(c2ccc(Cl)c(Cl)c2)C[C@H]1CN1CCN(C(=O)CN2CCCCC2)CC1 | Condition met |
| CN(Cc1ccc(F)cc1)C(=O)[C@@]1(c2ccc(Cl)c(Cl)c2)C[C@H]1CN1CCN(S(=O)(=O)N2CCCC2)CC1 | Condition met |
| CC(=O)NC1(c2ccccc2)CCN(C[C@@H]2C[C@@]2(C(=O)N(C)Cc2ccc(F)cc2)c2cccc(C(F)(F)F)c2)CC1 | Condition not met |
